Below, each of the sequences is paired with its reported protein stability index value.
System: Saccharomyces cerevisiae;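 also: PSI is a weighted mean of sequencing reads over stability bins, variants kept only with over 10 reads, mCherry proximal and sfGFP distal, peptide attached via GGGS linker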
testSummary: protein stability index of tFT-peptide fusion (C-terminal peptide) (PSI (0-1 scale)); higher = more stable (slower turnover)
settings: genetic background: wild type; temperature: 30 C

itemSequence	testedOn	protein stability index
IHSPCAMRPLIS	Saccharomyces cerevisiae	0.672
LALRMLWSIVRT	Saccharomyces cerevisiae	0.599
RPGRWFCFLYCV	Saccharomyces cerevisiae	0.185
VGSKGCDGCNRA	Saccharomyces cerevisiae	0.655
APPVPLWVNPRT	Saccharomyces cerevisiae	0.7
PRSSVLPPCPSL	Saccharomyces cerevisiae	0.707
TRPSRRPPRPSS	Saccharomyces cerevisiae	0.753
VAESGRGAGGDF	Saccharomyces cerevisiae	0.731
GGRAQVGGWWGR	Saccharomyces cerevisiae	0.774
FDITGAGLDSSF	Saccharomyces cerevisiae	0.79
RRKGVAGKWARR	Saccharomyces cerevisiae	0.586
PPRPPPSSPHLV	Saccharomyces cerevisiae	0.698
PFMFLSSCSGFF	Saccharomyces cerevisiae	0.735
PLPPPLPPPGPH	Saccharomyces cerevisiae	0.731
KNKKEKKKVKRT	Saccharomyces cerevisiae	0.687
TRRGPAGNKPRL	Saccharomyces cerevisiae	0.749
GRGGIGDGGPVW	Saccharomyces cerevisiae	0.639
CSMGGWPTERGI	Saccharomyces cerevisiae	0.697
PSGRRRWACARG	Saccharomyces cerevisiae	0.694
